details: pH 2.7
Marks after values point to notes of the source that are not given here.
parameter-measured: LogP

compound | parameter-measured | val
COC(C)CCOC(=O)Nc1cccc(CO/N=C(/c2ccccc2)c2noc(=O)n2C)n1 (centres unmarked) | LogP | 3.37 [a]
COc1cccc(OC(C)C(=O)Nc2cccc(CO/N=C(/c3ccccc3)c3noc(=O)n3C)n2)c1 (centres unmarked) | LogP | 3.97 [a]
Cn1c(/C(=N\OCc2cccc(NC(=O)OCCC3CCCC3)n2)c2ccccc2)noc1=O | LogP | 4.9 [a]
CCCCCOC(=O)Nc1cccc(CO/N=C(/c2ccccc2)c2noc(=O)n2CC)n1 | LogP | 4.72 [a]
COC(=O)Nc1cccc(CO/N=C(/c2ccccc2)c2noc(=O)n2C)n1 | LogP | 2.84 [a]
Cn1c(C(=NOCc2cccc(NC(=O)Cc3cccs3)n2)c2ccccc2)noc1=O | LogP | 3.42 [a]
Cc1cccc(OCC(=O)Nc2nc(CO/N=C(/c3ccccc3)c3noc(=O)n3C)cs2)c1 | LogP | 3.8 [a]
CC(C)[C@@H]1CC[C@@H](C)C[C@H]1OC(=O)Nc1cccc(CO/N=C(/c2ccccc2)c2noc(=O)n2C)n1 | LogP | 5.9 [a]

###

Listed here: items and their measured Eff. %.
test system: Puccinia recondita; assay: In vivo test on Puccinia recondita (brown rust); settings: wheat plants, spray, 500 ppm, grading 10 days after contamination

compound | Eff. % (%)
Cn1c(/C(=N\OCc2cccc(NC(=O)CCCl)n2)c2ccccc2)noc1=O | 75
CCCC(C)(C)OC(=O)Nc1cccc(CO/N=C(/c2ccccc2)c2noc(=O)n2C)n1 | 98
COc1ccc(OC)c(CC(=O)Nc2cccc(CO/N=C(/c3ccccc3)c3noc(=O)n3C)n2)c1 | 94
C#CCCC(C)OC(=O)Nc1cccc(CO/N=C(/c2ccccc2)c2noc(=O)n2C)n1 (centres unmarked) | 72
CCn1c(/C(=N\OCc2cccc(N)n2)c2ccccc2)noc1=O | 88
Cn1c(/C(=N\OCc2cccc(N)n2)c2cccc(F)c2)noc1=O | 89
C#CCC(C)(C)OC(=O)Nc1cccc(CO/N=C(/c2ccccc2)c2noc(=O)n2C)n1 | 98
CCCCCOC(=O)Nc1cccc(CO/N=C(/c2cccc(F)c2)c2noc(=O)n2C)n1 | 81

###

settings: pH 2.7
Marks after values point to notes of the source that are not given here.
Listed here: items and their measured LogP.
parameter-measured: LogP

molecule | val
Cn1c(C(=NOCc2cccc(NC(=O)CCCC3CCCCC3)n2)c2ccccc2)noc1=O [Example 267] | 5.14 [a]
Cn1c(/C(=N\OCc2cccc(NC(=O)OCC(Cl)Cl)n2)c2ccccc2)noc1=O [compound 461] | 3.74 [a]
Nc1cccc(CON=C(c2ccccc2)c2noc(=O)[nH]2)n1 (mixture of isomers) [Example 96] | 1.2 [a]
Cn1c(/C(=N\OCc2cccc(NC(=O)C3OCCc4ccccc43)n2)c2ccccc2)noc1=O (stereo not shown) [Example 227] | 4.1 [a]
CCCCC#CCOC(=O)Nc1cccc(CO/N=C(/c2ccccc2)c2noc(=O)n2C)n1 [compound 418] | 4.51 [a]
Cn1c(/C(=N\OCc2cccc(NC(=O)OCCC[Si](C)(C)C)n2)c2ccccc2)noc1=O [compound 422] | 5.28 [a]
CC(C)(C)OC(=O)Nc1cccc(CON=C(C(N)=NO)c2ccccc2)n1 (mixture of isomers) [Example V-11] | 2.54 [a]
Cn1c(/C(=N\OCc2cccc(NC(=O)OC(C)(C)C)n2)c2cccc(F)c2)noc1=O [Example 206] | 4.09 [a]
Cn1c(/C(=N\OCc2cccc(NC(=O)OCc3ccccn3)n2)c2ccccc2)noc1=O [compound 437] | 2.64 [a]
NC(=NO)C(=NOCc1csc(N)n1)c1ccccc1Cl (mixture of isomers) [Example V-10] | 0.73 [a]
CC(Oc1ccc(Br)cc1)C(=O)Nc1nc(CO/N=C(/c2ccccc2)c2noc(=O)n2C)cs1 (stereo not shown) [Example 216] | 4.17 [a]
Cn1c(/C(=N\OCc2csc(NC(=O)COc3ccccc3Br)n2)c2ccccc2)noc1=O [Example 159] | 3.89 [a]
CC(C)C(=O)Nc1cccc(CO/N=C(/c2ccccc2)c2noc(=O)n2C)n1 [Example 177] | 3.11 [a]
CCn1c(/C(=N\OCc2cccc(NC(=O)OC3CCCCC3)n2)c2ccccc2)noc1=O [Example 61] | 4.77 [a]
Cn1c(/C(=N\OCc2cccc(NC(=O)OCCc3cccc(Cl)c3)n2)c2ccccc2)noc1=O [Example 359] | 4.51 [a]
CCOC(=O)Nc1cccc(CO/N=C(/c2ccccc2)c2noc(=O)n2C)n1 [compound 421] | 3.21 [a]
